B1: glmS ribozyme (parent)
chain: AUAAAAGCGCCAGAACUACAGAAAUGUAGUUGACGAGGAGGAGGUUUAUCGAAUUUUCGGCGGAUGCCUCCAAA

- Variants of: B1
- Assay name: self-cleavage kobs at 10000 uM GlcN6P; higher = faster cleavage; RNA array
- Recorded conditions: with glucosamine-6-phosphate
Fewer inactive variants are shown than the library holds.
Where self-cleavage kobs at 10000 uM GlcN6P equals or exceeds 0.0001 s⁻¹, the correct label is T; where it does not, the label is F.

* A39U A48G G60A | F
* G29U G37A C67U | F
* C10U A42C A52U | F
* C8U A39C G41A U57C G59U | F
* C11U A33U G59A | T
* U31C U45A A52G C68U | T
* C16G C67G | F
* A12U A64U | T
* C10G U47G | F
* C16U A48G | F
* U46G A52U | F
* U45G U46C | T
* U55G C70G | F
* G32U G38C U55A | F
* U30G G62A C67A | F
* G44C C68G | F
* G29U U54C | T
* G66U C68U | T
* C8U U30G A39G G43U | F
* U65G | T
* A48U C58U | F
* C34A G51U C67U | T
* A33G G44U C67U | F
* G13A C34G C50U C67G | F
* A12G A14C C50G C71A | T
* C11A U69G | F
* G60C C67G | F
* A6U A33U | F
* A12U U45C | T
* C8G C71G | F
* G29A G32C | F
* A12G C34U | F
* C10G G41C | F
* C50G | T
* G7U A14U | F
* A14U A53U C71U | T
* U57C C58A C70U | F
* C8G G43C | F
* G29A C34U U47G A48G C67G | F
* A15C C16G | T
* A12C U57A | T
* G51C U56C | F
* U55A A64U | T
* U49A C70A | F
* C50G G51A | F
* G13A U54A | T
